ASSAYED_SYSTEM: T1, human CCL17 (human, UniProt Q92583 24-94)
T1 construct: Biotinylated in the Fab ELISAs; also called huCCL17; Bt-huCCL17
T1 sequence: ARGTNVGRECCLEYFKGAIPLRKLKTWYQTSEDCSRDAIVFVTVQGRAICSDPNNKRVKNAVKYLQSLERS
EXPERIMENT_NOTES: solution equilibrium affinity (MSD-SEA), IgG1
Experimental: Equal volumes of the anti-hCCL17 mAbs at 40 pM or 200 pM were added to each chemokine dilution to obtain mixtures containing the serial dilution of chemokines starting at a final concentration of […] and a constant concentration (20 pM or 100 pM) of anti-CCL17 antibody. The mixtures were prepared in duplicate and incubated at 4° C. for 48 hours to reach equilibrium. The free antibody was detected using a SECTOR Imager 6000 (Meso Scale Discovery) instrument. […]
pKd: −log10 of the molar value.

BINDER	COMPARATIVE_SIGN	pKd
C17B258 (antibody, IgG1, V domains shown, Expressed as IgG1; Light chain N50D (Kabat) variant of C17B234) VH: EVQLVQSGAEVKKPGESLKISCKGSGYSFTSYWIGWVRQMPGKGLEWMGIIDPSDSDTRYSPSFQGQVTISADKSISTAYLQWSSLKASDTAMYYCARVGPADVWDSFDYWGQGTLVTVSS VL: DIVMTQSPDSLAVSLGERATINCKSSQSVLLSFDNINKLAWYQQKPGQPPKLLIYDASTRESGVPDRFSGSGSGTDFTLTISSLQAEDVAVYYCQQFYSVPSTFGQGTKVEIK	=	13.00
C17B295 (antibody, IgG1, V domains shown, Expressed as IgG1; Heavy chain D100bE (Kabat) paired with the light chain of C17B258) VH: EVQLVQSGAEVKKPGESLKISCKGSGYSFTSYWIGWVRQMPGKGLEWMGIIDPSDSDTRYSPSFQGQVTISADKSISTAYLQWSSLKASDTAMYYCARVGPADVWESFDYWGQGTLVTVSS VL: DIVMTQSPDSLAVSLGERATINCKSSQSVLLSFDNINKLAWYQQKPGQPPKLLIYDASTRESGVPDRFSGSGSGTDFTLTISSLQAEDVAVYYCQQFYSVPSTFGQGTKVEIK	=	9.76
C17B260 (antibody, IgG1, V domains shown, Expressed as IgG1; Light chain N50G (Kabat) variant of C17B234) VH: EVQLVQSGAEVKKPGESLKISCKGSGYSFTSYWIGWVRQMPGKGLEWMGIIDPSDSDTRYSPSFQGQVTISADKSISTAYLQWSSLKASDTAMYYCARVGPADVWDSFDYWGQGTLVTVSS VL: DIVMTQSPDSLAVSLGERATINCKSSQSVLLSFDNINKLAWYQQKPGQPPKLLIYGASTRESGVPDRFSGSGSGTDFTLTISSLQAEDVAVYYCQQFYSVPSTFGQGTKVEIK	=	12.30
C17B293 (antibody, IgG1, V domains shown, Expressed as IgG1; Heavy chain S100cA (Kabat) paired with the light chain of C17B258; also called C17M293) VH: EVQLVQSGAEVKKPGESLKISCKGSGYSFTSYWIGWVRQMPGKGLEWMGIIDPSDSDTRYSPSFQGQVTISADKSISTAYLQWSSLKASDTAMYYCARVGPADVWDAFDYWGQGTLVTVSS VL: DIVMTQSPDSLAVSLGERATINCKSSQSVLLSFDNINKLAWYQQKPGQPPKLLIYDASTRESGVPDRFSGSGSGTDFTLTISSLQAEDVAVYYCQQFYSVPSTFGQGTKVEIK	>	13.00
